Each record here notes measured TC50.
Tested on: 2.2.15 cells
Experiment: Cytotoxicity (TC50) in 2.2.15 cells
Format: cell-based
Experimental: All compounds were evaluated for their anti-HBV activities, namely the ability to inhibit the replication of HBV DNA and the production of HBsAg and HBeAg in HBV-infected 2.2.15 cells. The samples were dissolved in DMSO for appropriate concentrations, and then each was diluted 3-fold with culture medium. The 2.2.15 cells were planted into 96-well culture plates. […] The culture supernatants and 2.2.15 cells were collected respectively on the 8th plant day. […]
Where a name gives a salt, the structure may show the parent alone.
Numbers only; they are read as µg/mL.

Recorded results for 3 compounds are shown here.
| compound | output_unit | TC50 |
| --- | --- | --- |
| CCOC(=O)c1c(C[S+]([O-])Cc2cccc(F)c2)n(C)c2cc(Br)c(O)c(CN(C)C)c12 (stereo not shown) [Example 81] | µg/mL | 35.61 |
| CCOC(=O)c1c(C[S+]([O-])Cc2ccco2)n(C2CC2)c2cc(Br)c(O)c(Cn3ccnc3)c12 (stereo not shown) [Example 130] | µg/mL | 24.69 |
| CCOC(=O)c1c(CSc2ccc(F)cc2)n(C2CC2)c2cc(Br)c(O)c(CN3CCN(C)CC3)c12 [Example 19, dihydrochloride] | µg/mL | 37.04 |

// query So what's the measured TC50 for this one? CCOC(=O)c1c(C[S+]([O-])c2ccc(C(F)(F)F)cc2)n(C)c2cc(Br)c(O)c(Cn3ccnc3)c12 (stereo not shown) [Example 177]
// result 106.83

###

Listed here: items and their measured TC50.
system: 2.2.15 cells; assay: Cytotoxicity (TC50) in 2.2.15 cells; assay type: cell-based
The response must be a number in µg/mL with no trailing unit.

| compound | output_unit | number |
| --- | --- | --- |
| CCOC(=O)c1c(C[S+]([O-])c2ccccc2C)n(C)c2cc(Br)c(O)c(CN3CCOCC3)c12 (stereo not shown) | µg/mL | 51.53 |
| CCOC(=O)c1c(C[S+]([O-])c2cccc(C)c2)n(C)c2cc(Br)c(O)c(Cn3ccnc3C)c12 (stereo not shown) | µg/mL | 53.42 |
| CCOC(=O)c1c(CS(=O)(=O)c2cccc(OC)c2)n(C)c2cc(Br)c(O)c(CN(C)C)c12 | µg/mL | 21.56 |

Let us move to another entry and its TC50.
// query Lab note: need TC50 with 2.2.15 cells for entry CCOC(=O)c1c(CSc2nc3ccccc3[nH]2)n(C)c2cc(Br)c(O)c(Cn3ccnc3C)c12.Cl , please look it up.
// result 21.38

###

tested on: 2.2.15 cells; assay: Cytotoxicity (TC50) in 2.2.15 cells; assay type: cell-based
quantity_measured: TC50 (µg/mL)
Respond with the bare value in µg/mL.

The cases that follow already have their TC50 on record.
| compound | TC50 (µg/mL) |
| --- | --- |
| CCOC(=O)c1c(C[S+]([O-])c2ccc(C)cc2)n(C)c2ccc(O)c(Cn3ccnc3C)c12 (centres unmarked) | 106.83 |
| CCOC(=O)c1c(CS(=O)(=O)Cc2ccccc2)n(C)c2cc(Br)c(O)c(CNC(=N)N)c12 | 24.69 |
| CCOC(=O)c1c(C[S+]([O-])c2cccc(Cl)c2)n(C)c2cc(Br)c(O)c(CN3CCOCC3)c12 (centres unmarked) | 288.68 |

// query Reported TC50, compound CCOC(=O)c1c(C[S+]([O-])c2ccc(F)c(F)c2)n(C2CC2)c2cc(Br)c(O)c(Cn3ccnc3)c12 (centres unmarked) : ____
// result 21.11

// query Need TC50, item CCOC(=O)c1c(C[S+]([O-])c2ccccc2F)n(C)c2cc(Br)c(O)c(Cn3ccnc3)c12 (centres unmarked)
// result 48.1

// query Fill in: TC50 of CCOC(=O)c1c(CSc2nc3ccccc3[nH]2)n(C)c2cc(Br)c(O)c(Cn3ccnc3)c12.Cl is ___
// result 53.42

// query State the recorded TC50 for this entry: CCOC(=O)c1c(C[S+]([O-])Cc2ccccc2F)n(C2CC2)c2cc(Br)c(O)c(Cn3ccnc3C)c12 (centres unmarked)
// result 37.04

// query Form field: reported TC50 of CCOC(=O)c1c(C[S+]([O-])Cc2ccco2)n(C)c2cc(Br)c(O)c(CN3CCCC3)c12 (centres unmarked)
// result 38.32

The values you see were collected from patent US7960427B2.
